Data provenance is ChEMBL document CHEMBL3808346.

Test: Solubility of compound in FaSSIF at pH 6.5 by HPLC-UV analysis
Type: physicochemical
MEASURED QUANTITY: solubility (mg/mL)

Record excerpt, results attached:
CCN1CCN(c2cc(F)c(NC(=O)N3CCc4c(-c5cnc(N)nc5)nc(N5CCOCC5)nc43)c(F)c2)CC1 = 0.02
CC(C)c1ccccc1NC(=O)N1CCc2c(-c3cnc(N)nc3)nc(N3CCOCC3)nc21 = 0.013

[a] CCN1CCN(c2ccc(NC(=O)N3CCc4c(-c5cnc(N)nc5)nc(N5CCOCC5)nc43)c(C)c2)CC1
[b] Cc1nc(N)ncc1-c1nc(N2CCOCC2)nc2c1CCN2c1cccnc1
Request: // which entry has the larger solubility value, a or b ? Write the label of whichever entry you select.
Result: b

====

Experiment: Permeability of compound by PAMPA method
Type: ADME
Details: read-out: permeability
MEASURED QUANTITY: Papp (×10⁻⁶ cm/s)
Form entry: value (×10⁻⁶ cm/s) — number only.

Record CCN1CCN(c2cc(F)c(NC(=O)N3CCc4c(-c5cnc(N)nc5)nc(N5CCOCC5)nc43)c(F)c2)CC1 . Reported Papp: 1.1

====

Test: Solubility of compound in FaSSIF at pH 6.5 by HPLC-UV analysis
Assay type: physicochemical
Reported solubility is given for each of the following molecules.

Nc1ncc(-c2nc(N3CCOCC3)nc3c2CCN3c2cccnc2)cn1 = < 12 µg/mL
CCN1CCN(C(=O)c2ccc(NC(=O)N3CCc4c(-c5cnc(N)nc5)nc(N5CCOCC5)nc43)c(C)c2)CC1 = < 18 µg/mL

Short answer for CN(C(=O)N1CCc2c(-c3cnc(N)nc3)nc(N3CCOCC3)nc21)c1ccccc1 : solubility was < 3 µg/mL

Notebook: Nc1ncc(-c2nc(N3CCOCC3)nc3c2CCN3C(=O)Nc2ccccc2)cn1 , solubility read as < 3 µg/mL

Looking up Cc1ccccc1NC(=O)N1CCc2c(-c3cnc(N)nc3)nc(N3CCOCC3)nc21 , I see its solubility listed as < 14 µg/mL
